Biological target: Kdn(a2-3)Gal(b1-3)GalNAc
Test: glycan array binding signal (z-score within array); higher = stronger binding
Conditions: glycan notation: IUPAC condensed, linker removed
This excerpt belongs to a sample that is enriched for the strongest signals.
measurement kind: glycan array binding signal (z-score)
// print number alone

Provide measured glycan array binding signal (z-score) value, entry: Mnn9-2N3 (Aspergillus fumigatus) (protein) MAVARRMRRTNPITLLLAAILAIGFFIFVLSPSTTSASPVKAGSASSSSTSQQRREDNAAENPLSPPTKPFFKSQPVRHDGQQAPPPVVQYNLNQLSSTSTSAANGERILILTPMARFVPEYWDNVVKLTYPHELISIGFIIPKNKEGNAALAALEAAIAKTQSGPIDKRFASISILRQDFEPPLQSQDEKERHKISNQKARRESMSRARNSLLFTTLGPATAWVLWLDADIVETPPTLIQDLTAHDHPVLVPNCYQRYYNSEKKKMDVRPYDYNSWIDSSTAQSMAAEMGPDEILLEGYAEMPTYRTLMAHLADTANPNPKKVIELDGVGGTALMVKAEVHRDGAMFPAFPFYHLVETEGFAKMAKRLGYSVYGLPDYFVSRNFFFFFFFFFFG
-2.43
